Test: Pharmacokinetic evaluation in mice (plasma and brain AUC)
Format: in vivo
Set-up: unit not given here
Conditions: CL57 BL/6 mice, single IV injection 10 mg/kg, brain homogenate
Experimental: Several compounds disclosed herein were evaluated in a standard murine pharmacokinetic model. […] Three mice in each group were used for blood and brain collection at each time point. […] Compound concentrations in plasma and brain homogenate were determined using a high performance liquid chromatography/mass spectrometry (HPLC/MS/MS) method (Agilent 1100 series HPLC, AB Inc. API4000 triple-quadrupole with an ESI interface and Analyst 1.4 software). […]
Property measured: AUC Brain

- Compound: "COc1cc(-c2cnc3[nH]cc(-c4ccc5[nH]ccc5c4)c3c2)cc(OC)c1OC [Example 1]"
  AUC Brain: "+ (+ indicates ≧500)"
- Compound: "COc1cc(-c2cnc3[nH]cc(-c4cnc(N)nc4)c3c2)cc(OC)c1OC [Example 17]"
  AUC Brain: "− (− indicates <500)"
- Compound: "CN1CCN(Cc2ccc(-c3cnc4[nH]cc(-c5ccc6[nH]ccc6c5)c4c3)cc2)CC1 [Example 32]"
  AUC Brain: "+ (+ indicates ≧500)"
- Compound: "Nc1ccc(-c2cnc3[nH]cc(-c4ccc5[nH]ccc5c4)c3c2)cn1 [Example 4]"
  AUC Brain: "− (− indicates <500)"
- Compound: "Nc1ncc(-c2cnc3[nH]cc(-c4ccc5[nH]ccc5c4)c3c2)cn1 [Example 9]"
  AUC Brain: "+ (+ indicates ≧500)"

Give its AUC Brain value. Item: COc1cc(-c2cnc3[nH]cc(-c4ccc(N)nc4)c3c2)cc(OC)c1OC [Example 18] − (− indicates <500)
